- target: T1, Rhesus SLC34A2 (Rhesus, UniProt F7HDA3 1-690)
- T1 construct: whole, on cells
- T1 sequence: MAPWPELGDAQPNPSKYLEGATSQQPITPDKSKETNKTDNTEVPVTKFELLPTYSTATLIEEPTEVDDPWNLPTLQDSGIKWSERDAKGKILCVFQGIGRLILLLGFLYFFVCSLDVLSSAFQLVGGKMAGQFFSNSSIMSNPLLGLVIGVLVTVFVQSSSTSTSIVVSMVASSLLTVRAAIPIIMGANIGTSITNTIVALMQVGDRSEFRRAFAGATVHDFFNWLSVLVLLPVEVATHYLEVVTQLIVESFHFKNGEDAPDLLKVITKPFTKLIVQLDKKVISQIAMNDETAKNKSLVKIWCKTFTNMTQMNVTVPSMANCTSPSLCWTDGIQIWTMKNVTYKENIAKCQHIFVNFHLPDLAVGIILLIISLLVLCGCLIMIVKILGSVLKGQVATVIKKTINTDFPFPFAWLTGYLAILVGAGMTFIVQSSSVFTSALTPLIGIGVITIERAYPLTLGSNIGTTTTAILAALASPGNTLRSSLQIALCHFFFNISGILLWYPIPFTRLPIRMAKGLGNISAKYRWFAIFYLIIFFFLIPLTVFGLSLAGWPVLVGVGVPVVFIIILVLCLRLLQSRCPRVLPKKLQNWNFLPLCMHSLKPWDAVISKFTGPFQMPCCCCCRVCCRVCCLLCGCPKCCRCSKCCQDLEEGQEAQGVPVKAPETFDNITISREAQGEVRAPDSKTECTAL
- test.name: FACS, HEK293/Rhesus SLC34A2 cells
The following binders are listed with their measured pEC50 values.
pEC50 (log units): -log10 of the concentration in mol/L.

* 63A11D5B4 VH_P1/VL hIgG1 (antibody, V domains shown, PTM-derisked chimeric, hIgG1; that P1 is the SG version follows from the humanized .p1 chains; also called 63A11D5B4.p1 hIgG1) VH: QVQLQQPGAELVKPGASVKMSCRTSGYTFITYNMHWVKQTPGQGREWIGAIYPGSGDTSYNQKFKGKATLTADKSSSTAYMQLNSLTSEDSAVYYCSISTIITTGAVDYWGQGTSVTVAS VL: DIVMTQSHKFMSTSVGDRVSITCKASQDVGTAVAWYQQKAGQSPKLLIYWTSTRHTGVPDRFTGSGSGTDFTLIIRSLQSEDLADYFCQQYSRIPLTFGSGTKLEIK | 8.41
* 62G10E4G8 VH_P3/VL hIgG1 (antibody, V domains shown, PTM-derisked chimeric, hIgG1; that P3 is the NA version follows from the humanized .p3 chains; also called 62G10E4G8.p3 hIgG1) VH: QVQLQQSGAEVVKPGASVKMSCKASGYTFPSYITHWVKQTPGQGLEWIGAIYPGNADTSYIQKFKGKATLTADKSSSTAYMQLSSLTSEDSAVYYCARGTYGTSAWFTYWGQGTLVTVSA VL: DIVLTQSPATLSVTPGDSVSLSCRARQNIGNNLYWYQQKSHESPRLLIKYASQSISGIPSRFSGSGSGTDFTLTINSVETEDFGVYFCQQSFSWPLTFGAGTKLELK | 8.37

Would you kindly look at the next entry?
[in] Name the recorded pEC50 of the item 30H9B8F9 VH_P1/VL hIgG1 (antibody, V domains shown, PTM-derisked chimeric, hIgG1; that P1 is the N=>S version follows from the humanized .p1 chains; also called 30H9B8F9.p1 hIgG1) VH: QVQLQQPGAELVKPGASVKMSCKTSGYTFTTNNMHWVKQTPGQGLEWIGAIYPGSGATAYNQKFKGKATLTADKSSSTAYMQLSSLTSEASAVYYCARGMYGHGAMDYWGQGTSVIVSS VL: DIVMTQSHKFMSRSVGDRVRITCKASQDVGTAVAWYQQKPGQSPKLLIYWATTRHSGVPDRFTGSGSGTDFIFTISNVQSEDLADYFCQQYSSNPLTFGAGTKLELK in your answer.
[out] 8.70
